# System: HCT-116 colon
# ASSAY METHOD TEXT: NCI-60 one-dose screen, 48 h (100 = growth as untreated, 0 = no growth, -100 = all killed)
# CONDITION NOTES: 10 µM unless noted
The panel holds about 83,000 compounds, 20% with a hit somewhere; the sample as a whole holds those more often.
The label is yes for growth below 20% and no for growth equal to or exceeding 20%.

CC1=CC[C@@H]2C(C)(C)[C@@H](O)CC[C@@]2(C)[C@@H]1COc1ccc2ccc(=O)oc2c1 : no
CCNC(=O)N1CCc2c(Cl)c3c(c(OC)c2[C@@H]1[C@H]1OCc2c1ccc(OC)c2OC)OCCO3 : yes
CCc1cccc(Cl)c1 : no
Nc1nc(Nc2ccccc2)c2ncn(Cc3cc4c(cc3Br)OCO4)c2n1 : yes

Turning now to a further compound:
Hello, is growth of the following compound strictly smaller than 20%? COc1ccc(C2NC(=O)C(C#N)c3c2sc2c(F)cccc32)cc1 (stereo not given)
no
